Source of measurements: patent US20230002374A1

target: human GPR52 (Homo sapiens); experiment: GPR52 Agonist Functional cAMP Assay; settings: maximal response normalised to DMSO (0%) and maximal compound 7m (J. Med. Chem., 2014, 57, 5226) response (100%)
Where Emax equals or exceeds 80%, the correct label is t; where it does not, the label is f.

Molecule	Class label
O=C1NCCc2c1cnn2-c1ccnc(Cc2cc(C(F)(F)F)ccc2F)c1	f
O=C1NCCc2c1cnn2-c1ccnc(Cc2cc(F)c(F)c(C(F)(F)F)c2)c1	t
Cc1cc(Cc2cc(-n3ncc4c3CCNC4=O)ccn2)cc(C(F)(F)F)c1	t
O=C1c2cnn(-c3ccnc(Cc4cc(F)cc(C(F)(F)F)c4)c3)c2CCN1CCO	t
O=C1NCCc2c1cnn2-c1ccnc(C(O)c2cc(F)cc(C(F)(F)F)c2)c1 (stereo not drawn)	t
O=C1NCCc2c1cnn2-c1ccnc(Cc2cc(Cl)cc(Cl)c2)c1	t
O=C1NCCc2c1cnn2-c1ccnc(Cc2cc3ccccc3s2)c1	f
O=C1NCCOc2c1cnn2-c1cc(Cc2cc(F)cc(C(F)(F)F)c2)ccn1	t
O=C1NCCc2c1cnn2-c1ccnc(Cc2ccc(C(F)(F)F)c(F)c2)c1	f
O=C1NCCc2c1cnn2-c1ccnc(Cc2cc(F)cc(C3CC3)c2)c1	t
Cc1nn(-c2ccnc(Cc3cnc(OC(F)F)c(F)c3)c2)c2c1C(=O)NCC2	t
O=C1NCCCc2c1cnn2-c1cc(Cc2cc(F)cc(C(F)(F)F)c2)ccn1	t
O=C1NCCc2nn(-c3cc(Cc4cccc(C(F)(F)F)c4)ccn3)cc21	f
O=C1NCCc2c1cnn2-c1cncc(Oc2cc(F)cc(C(F)(F)F)c2)c1	f
O=C1NCCc2c1cnn2-c1cnnc(Cc2cc(F)cc(C(F)(F)F)c2)c1	t
COc1cc(Cc2cc(-n3ncc4c3CCNC4=O)ccn2)ccc1C(F)(F)F	t
Cc1nn(-c2ccnc(Cc3cc(F)c(F)c(F)c3)c2)c2c1C(=O)NCC2	t
O=C1NCCc2c1cnn2-c1ccnc(Cc2cnc3ccccc3c2)c1	f

* * *

# pEC50 per record follows
molecular target: human GPR52 (Homo sapiens, UniProt Q9Y2T5); assay: GPR52 Agonist Functional cAMP Assay; conditions: pEC50 average, HEKf cells infected with human GPR52 BacMam virus; cAMP HTRF; 30 min at 37° C.
Sequence (Q9Y2T5 whole entry): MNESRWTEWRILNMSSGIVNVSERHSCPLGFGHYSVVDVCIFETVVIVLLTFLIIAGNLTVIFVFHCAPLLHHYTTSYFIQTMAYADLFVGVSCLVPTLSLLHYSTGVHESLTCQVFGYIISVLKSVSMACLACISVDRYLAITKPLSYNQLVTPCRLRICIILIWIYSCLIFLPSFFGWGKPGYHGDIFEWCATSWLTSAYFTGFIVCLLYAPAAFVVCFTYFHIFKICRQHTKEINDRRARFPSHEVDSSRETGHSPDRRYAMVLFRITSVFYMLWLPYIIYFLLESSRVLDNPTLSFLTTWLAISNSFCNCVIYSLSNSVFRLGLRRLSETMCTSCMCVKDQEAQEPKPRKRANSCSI
pEC50: −log10 of the molar value.
Assay endpoint: pEC50

Compound	Experimental result
O=C1NCCc2c1cnn2-c1ccnc(Cc2cc(F)c(F)c(Cl)c2)c1	7.60
O=C1NCCc2c1cnn2-c1ccnc(Cc2cc(Cl)cc(Cl)c2)c1	6.90
O=C1NCCOc2nn(-c3ccnc(Cc4cc(F)cc(C(F)(F)F)c4)c3)cc21	6.40
O=C1NCCCc2c1nnn2-c1cc(Cc2cccc(C(F)(F)F)c2)ccn1	6.10
CN1CCc2nn(-c3cc(Cc4cccc(C(F)(F)F)c4)ccn3)nc2C1=O	5.70
O=C1NCCc2c1cnn2-c1ccnc(C(O)c2cc(F)cc(C(F)(F)F)c2)c1 (centres unmarked) [Example 36]	6.30
COCCN1CCc2c(cnn2-c2cc(Cc3cc(F)cc(C(F)(F)F)c3)ccn2)C1=O	7.50
COc1ncc(Cc2cc(-n3ncc4c3CCNC4=O)ccn2)cc1F	5.90
O=C1NCCc2c1cnn2-c1ccnc(Cc2ccc(C(F)(F)F)c(F)c2)c1	6.40
O=C1NCCc2c1cnn2-c1cc(Cc2cc(F)cc(C(F)(F)F)c2)cnn1	6.90
CC1Cc2c(cnn2-c2ccnc(Cc3cc(F)cc(C(F)(F)F)c3)c2)C(=O)N1 (single isomer, unassigned) [Example 40 Isomer 2]	6.90
O=C1NCCc2c1cnn2-c1ccnc(Cc2cc(F)cc(S(F)(F)(F)(F)F)c2)c1	7.30
O=C1NCCc2c1nnn2-c1cc(Cc2cccc(C(F)(F)F)c2)ccn1	6.10
O=C1NCCCc2c1cnn2-c1cc(Cc2cccc(C(F)(F)F)c2)ccn1	7.20
O=C1NCCc2c1cnn2-c1ccnc(Cc2cc(F)cc(C3(C(F)(F)F)CC3)c2)c1	6.30
O=C1NCCc2c1cnn2-c1ccnc(Cc2cc(F)cc(OC(F)F)c2)c1	7.10
Cc1nn(-c2ccnc(Cc3cc(F)c(F)c(Cl)c3)c2)c2c1C(=O)NCC2	8.60

* * *

# Emax per record follows
target: UniProtKB Q9Y2T5; assay: GPR52 Agonist Functional cAMP Assay; conditions: maximal response normalised to DMSO (0%) and maximal compound 7m (J. Med. Chem., 2014, 57, 5226) response (100%)

Compound	Emax [%]
Cc1nn(-c2ccnc(Cc3ccc(OC(F)F)c(F)c3)c2)c2c1C(=O)NCC2 [Example 81]	70
COCCN1CCc2c(cnn2-c2cc(Cc3cc(F)cc(C(F)(F)F)c3)ccn2)C1=O [Example 106]	86
O=C1NCCc2nn(-c3cc(Cc4cccc(C(F)(F)F)c4)ccn3)nc21 [Example 43]	86
Cc1nn(-c2ccnc(Cc3cccc(C(F)(F)F)c3)c2)c2c1C(=O)NCC2 [Example 78]	94

* * *

target: human GPR52 (Homo sapiens, UniProt Q9Y2T5); assay: GPR52 Agonist Functional cAMP Assay; conditions: maximal response normalised to DMSO (0%) and maximal compound 7m (J. Med. Chem., 2014, 57, 5226) response (100%)
# Emax per record follows

Structure as smiles	Emax [%]
O=C1NCCc2c1cnn2-c1ccnc(Cc2cccc(C(F)(F)F)c2F)c1	57
Cc1nn(-c2ccnc(Cc3cc(F)cc(C#N)c3)c2)c2c1C(=O)NCC2	96
O=C1NCCc2c1cnn2-c1ccnc(Cc2cc(F)c(Cl)c(F)c2)c1	79
O=C1NCCc2c1cnn2-c1cc(Cc2cc(F)cc(C(F)(F)F)c2)cnn1	95
O=C1NCCc2c1cnn2-c1ccnc(Cc2cc(F)c(C(F)(F)F)c(F)c2)c1	74
COc1ccc(Cc2cc(-n3ncc4c3CCNC4=O)ccn2)cc1C(F)(F)F	69
O=C1NCCc2c1cnn2-c1ccnc(Cc2cc(F)cc(S(F)(F)(F)(F)F)c2)c1	99
O=C1NCCc2c1cnn2-c1ccnc(Cc2cc(Cl)c(F)c(C(F)(F)F)c2)c1	88
O=C1NCCc2c1cnn2-c1ccnc(Cc2cc(F)cc(Cl)c2)c1	101
Cc1nn(-c2ccnc(Cc3ccc(OC(F)F)nc3)c2)c2c1C(=O)NCC2	78
O=C1NCCc2c1cnn2-c1cc(Oc2cc(F)cc(C(F)(F)F)c2)ccn1	82

* * *

molecular target: human GPR52 (Homo sapiens, UniProt Q9Y2T5); test: GPR52 Agonist Functional cAMP Assay;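 further: HEKf cells transduced with GPR52 BacMam for 24 h, 2000 per well, exposed to compounds 30 min at 37° C with 0.5 mM IBMX, cAMP read by HTRF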; details: maximal response normalised to DMSO (0%) and maximal compound 7m (J. Med. Chem., 2014, 57, 5226) response (100%)

Compound	Emax [%]
Cc1nn(-c2ccnc(Cc3ccc(F)c(Cl)c3)c2)c2c1C(=O)NCC2 [Example 80]	97
N#Cc1nn(-c2ccnc(Cc3cc(F)cc(C(F)(F)F)c3)c2)c2c1C(=O)NCC2 [Example 115]	91
O=C1NCCCc2c1nnn2-c1cc(Cc2cccc(C(F)(F)F)c2)ccn1 [Example 41]	90
O=C1NCCc2c1nnn2-c1cc(Cc2cc(F)cc(C(F)(F)F)c2)ccn1 [Example 99]	95
